Values were extracted from patent US10738043B2.

Target: GLS1 (purified recombinant human GAC) (Homo sapiens, UniProt O94925)
Sequence (O94925 55-598 isoform O94925-3 limits assumed): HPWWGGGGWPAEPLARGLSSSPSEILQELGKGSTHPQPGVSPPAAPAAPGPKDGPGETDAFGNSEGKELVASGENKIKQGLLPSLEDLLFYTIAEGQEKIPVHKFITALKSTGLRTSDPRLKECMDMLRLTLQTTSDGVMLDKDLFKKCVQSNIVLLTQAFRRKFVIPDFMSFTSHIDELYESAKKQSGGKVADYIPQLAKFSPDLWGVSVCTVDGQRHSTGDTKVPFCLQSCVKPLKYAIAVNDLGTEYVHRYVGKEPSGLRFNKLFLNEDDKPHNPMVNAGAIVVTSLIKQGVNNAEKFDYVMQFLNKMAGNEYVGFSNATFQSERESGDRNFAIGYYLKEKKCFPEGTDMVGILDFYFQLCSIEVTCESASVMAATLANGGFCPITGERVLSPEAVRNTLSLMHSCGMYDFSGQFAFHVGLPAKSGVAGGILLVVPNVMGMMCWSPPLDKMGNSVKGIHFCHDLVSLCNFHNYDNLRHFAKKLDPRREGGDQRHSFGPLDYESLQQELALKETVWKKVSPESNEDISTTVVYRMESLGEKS
Assay: GLS1 Enzymatic Activity Assay (dual-coupled enzymatic assay)
Details: 50 mM potassium phosphate, 1 mM glutamine, read-out: IC50 against GLS1
attribute_measured: IC50

Worked cases, answers included:
compound | reported_measurement
Cn1cc(CC(=O)Nc2nnc(C3CCCN(c4ccc(NC(=O)Cc5cccc(OC(F)(F)F)c5)nn4)C3)s2)cn1 (stereo not shown) [Example 24] | < 100 nM
O=C(Cc1ccccn1)Nc1ccc(N2CCC(c3nnc(NC(=O)Cc4ccccn4)s3)C2)nn1 (stereo not shown) [Example 9] | < 100 nM
Cn1ccc(CNC(=O)c2nnc(N3CCC(c4ccc(NC(=O)Cc5ccccn5)nn4)C3)s2)n1 (stereo not shown) [Example 37] | < 100 nM
Nc1nnc(C2CCN(c3ccc(NC(=O)Cc4cccc(OC(F)(F)F)c4)nn3)C2)s1 (stereo not shown) [Example 19] | 100 to 500 nM
Cn1cc(CC(=O)Nc2nnc(C3CCN(c4ccc(NC(=O)Cc5cccc(OC(F)(F)F)c5)nn4)C3)s2)cn1 (stereo not shown) [Example 18, 2,2,2-trifluoroacetate] | < 100 nM

Query: Which measured IC50 value corresponds to CC(=O)Nc1nnc(C2CCN(c3ccc(NC(=O)Cc4ccccn4)nn3)C2)s1 (stereo not shown) [Example 12] ?
Reply: 100 to 500 nM

Query: Try this compound too: CNC(=O)c1nnc(N2CCC(c3ccc(NC(=O)Cc4ccccn4)nn3)C2)s1 (stereo not shown) [Example 41]
Reply: 100 to 500 nM
